molecular target: Tyrosine-protein kinase JAK3 (Homo sapiens); conditions: at 0.1 µM;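 also: values reported are mean percent inhibition of JAK3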
quantity-measured: inhibition (%)

>  <molecule>
COc1ccc2cc(-c3c(-c4ccncc4)nc(-c4ccc([S+](C)[O-])cc4)n3C)ccc2c1 (stereo not given)

>  <value-measured>
-0.93

$$$$
>  <molecule>
NS(=O)(=O)c1cccc(-c2ccc3c(NC(=O)C4CC4)n[nH]c3c2)c1

>  <value-measured>
-0.5

$$$$
>  <molecule>
CCn1c(-c2nonc2N)nc2c(N3CCCC3)nccc21

>  <value-measured>
-0.2

$$$$
>  <molecule>
COc1ccccc1Nc1ncc(-c2ccccc2)o1

>  <value-measured>
-3.6

$$$$
>  <molecule>
Cc1ccc(C(=O)NC2CCCCC2)cc1-c1ccc(C(=O)NCC2CC2)cc1

>  <value-measured>
0.78

$$$$
>  <molecule>
Fc1cccc(COc2ccc(Nc3ncnc4sc(-c5cccs5)cc34)cc2Cl)c1

>  <value-measured>
1.46

$$$$
>  <molecule>
O=C1NC(=O)C(c2ccc(Cl)cc2)=C1Nc1ccc(Cl)c(C(=O)O)c1

>  <value-measured>
0.01

$$$$
>  <molecule>
CCn1c(-c2nonc2N)nc2ccncc21

>  <value-measured>
-1.14

$$$$
>  <molecule>
COc1cccc(-n2ncc3c(N/N=C/c4cccc(F)c4)ncnc32)c1

>  <value-measured>
-4.29

$$$$
>  <molecule>
Cc1nn(C)c2cc(N(C)c3ccnc(Nc4cccc(S(N)(=O)=O)c4)n3)ccc12

>  <value-measured>
-0.24

$$$$
>  <molecule>
O=C1NC(=O)C(N2CCc3ccccc32)=C1c1ccc(Cl)cc1

>  <value-measured>
-1.28

$$$$
>  <molecule>
NS(=O)(=O)c1ccc(N/N=C2\C(=O)Nc3ccc(C(=O)NCCc4c[nH]cn4)cc32)cc1

>  <value-measured>
0.03

$$$$
>  <molecule>
Cc1nnc(-c2ccc(C)c(-c3ccc(C(=O)Nc4cccc(C#N)c4)cc3)c2)o1

>  <value-measured>
-1.17

$$$$
>  <molecule>
CS(=O)(=O)CCN(CC#N)Cc1ccc(-c2ccc3ncnc(Nc4ccc(OCc5cccc(F)c5)c(Cl)c4)c3c2)o1

>  <value-measured>
-5.68

$$$$
>  <molecule>
CCCN1CCC=C(c2ccc(Nc3nc(Nc4ccccc4C(N)=O)c4cc[nH]c4n3)c(C)c2)C1

>  <value-measured>
-1.04

$$$$
>  <molecule>
CCn1c(-c2nonc2N)nc2cnc(Oc3cccc(NC(=O)c4ccc(OCCN5CCOCC5)cc4)c3)cc21

>  <value-measured>
0.31

$$$$
>  <molecule>
Cc1ccc(NC(=O)c2ccnc(N3CCCC3)c2)cc1-c1ccc(C(=O)NCC2CC2)cc1

>  <value-measured>
-2.85

$$$$
>  <molecule>
NC(=O)c1ccc(-c2nc(-c3ccccn3)c(-c3ccc4c(c3)OCO4)[nH]2)cc1

>  <value-measured>
-1.26

$$$$
>  <molecule>
COc1ccc(COc2ccc(Cc3cnc(N)nc3N)cc2OC)cc1

>  <value-measured>
2.12

$$$$
>  <molecule>
Nc1ncnc2occ(-c3ccc(NC(=O)Nc4cccc(C(F)(F)F)c4)cc3)c12

>  <value-measured>
-4.17

$$$$
